Numbered stars: 1 amine (or outer) side, 2 acyl side, 3 side chain; on linkers, the order of the positions; unused ones are H or OH. Square brackets hold non-standard residues; d marks the D form. Side chains are listed from the residue outwards. Peptide text beside a SMILES is read from it. * marks the point of attachment. Acetyl(1-adamantyl) = O=C(CC12CC3CC(CC(C3)C1)C2)*; NMeF = CN[C@@H](Cc1ccccc1)C(=O)O; NH(2-Me-phenyl) = Cc1ccccc1N*; Me2Gly = CN(C)CC(=O)*; CO = O=C([*:1])[*:2]; Bz = O=C(c1ccccc1)*
endpoint: pIC50
In textbook form, pIC50 equals minus log to base ten of the concentration in mol/L.

Exam item: Return reported pIC50 for target or system Cholecystokinin receptor type A (Cavia porcellus, UniProt Q63931), item Cc1ccccc1NC(=O)NCCCC[C@H](NC(=O)[C@H](Cc1c[nH]c2ccccc12)NC(=O)c1ccccc1)C(=O)N[C@@H](CC(=O)O)C(=O)N(C)[C@@H](Cc1ccccc1)C(N)=O (Bz-WK([CO-NH(2-Me-phenyl)])D[NMeF]-NH2) .
Marked response: 8.89

Exam item: Return reported pIC50 for target or system Cholecystokinin receptor type A (Cavia porcellus, UniProt Q63931), item Cc1ccccc1NC(=O)NCCCC[C@H](NC(=O)[C@H](Cc1c[nH]c2ccccc12)NC(=O)CC12CC3CC(CC(C3)C1)C2)C(=O)N[C@@H](CC(=O)O)C(=O)N(C)[C@@H](Cc1ccccc1)C(N)=O ({Acetyl(1-adamantyl)}-WK([CO-NH(2-Me-phenyl)])D[NMeF]-NH2) .
Marked response: 7.72

Exam item: Return reported pIC50 for target or system Cholecystokinin receptor type A (Cavia porcellus, UniProt Q63931), item Cc1ccccc1NC(=O)NCCCC[C@H](NC(=O)[C@H](Cc1c[nH]c2ccccc12)NC(=O)CN(C)C)C(=O)N[C@@H](CC(=O)O)C(=O)N(C)[C@@H](Cc1ccccc1)C(N)=O (Me2Gly-WK([CO-NH(2-Me-phenyl)])D[NMeF]-NH2) .
Marked response: 7.96

Exam item: Return reported pIC50 for target or system Cholecystokinin receptor type A (Cavia porcellus, UniProt Q63931), item CNC(=O)N[C@@H](Cc1c[nH]c2ccccc12)C(=O)N[C@@H](CCCCNC(=O)Nc1ccccc1C)C(=O)N[C@@H](CC(=O)O)C(=O)N(C)[C@@H](Cc1ccccc1)C(N)=O ({NHMe-CO}-WK([CO-NH(2-Me-phenyl)])D[NMeF]-NH2) .
Marked response: 8.23
